Every entry's value here was drawn from patent US8802597B2.

# Test system: late watergrass (Echinochloa oryzicola)
# ASSAY_NOTES: Test E flooded paddy water application
# Assay type: in vivo
# TEST_CONDITIONS: 125 g ai/ha; Flood; 21 days; scale 0 to 100 (0 no effect, 100 complete control)

# STRUCTURE_NOTATION, Watergrass, Late plant response rating
rows = [
    ("CCOC(=O)c1nc(-c2ccc(Br)cc2)nc(N)c1Cl", 0),
    ("CCOC(=O)c1nc(-c2ccc(Cl)cc2Cl)nc(N)c1Br", 0),
    ("CCOC(=O)c1nc(-c2ccc3c(c2)OCO3)nc(N)c1Cl", 0),
    ("CCOC(=O)c1nc(-c2ccc(Cl)cc2Cl)nc(N)c1Cl", 0),
    ("CNc1nc(-c2ccc(Cl)cc2)nc(C(=O)OC)c1Cl", 0),
]

---

Recorded measurements of Morningglory plant response rating, one per entry
# System: morningglory (Ipomoea coccinea)
# ASSAY_NOTES: Test C pre/postemergence
# Type: in vivo
# TEST_CONDITIONS: Postemergence, 62 g ai/ha; scale 0 to 100 (0 no effect, 100 complete control)

# MOLECULE, Morningglory plant response rating
rows = [
    ("COCc1nc(C2CC2)nc(N)c1Br [Compound 11]", 0),
    ("CCOC(=O)C(OC(C)=O)c1nc(C2CC2)nc(N)c1Br (stereo not shown) [Compound 47]", 40),
    ("CCOC(=O)c1nc(-c2ccc(Cl)cc2)nc(N)c1Br [Compound 37]", 0),
    ("CNN=Cc1nc(C2CC2)nc(N)c1Br [Compound 49]", 50),
]

---

# System: giant foxtail (Setaria faberii)
# ASSAY_NOTES: Test B pre/postemergence
# Format: in vivo
# TEST_CONDITIONS: Setaria faberi, post-emergence, Postemergence, 125 g ai/ha; scale 0 to 100 (0 no effect, 100 complete control); read-out: Foxtail, Giant plant response rating
Recorded measurements of pest or weed control at 125 g/ha, one per entry
PROPERTY_NAME: pest or weed control at 125 g/ha (%)

# COMPOUND, PROPERTY_NAME, NUMERIC_RESULT
data = [
    ("COC(=O)c1nc(C2CC2)nc(NO)c1Br", "pest or weed control at 125 g/ha", 10),
    ("COC(=O)c1nc(C2CC2)nc(N)c1I", "pest or weed control at 125 g/ha", 20),
    ("Nc1nc(-c2ccc(Br)cc2)nc(C(=O)O)c1Cl", "pest or weed control at 125 g/ha", 80),
    ("Nc1nc(C2CC2)nc(C(=O)[O-])c1Cl.[Na+] [Compound 77, monosodium salt]", "pest or weed control at 125 g/ha", 80),
]

---

# Test system: blackgrass (Alopecurus myosuroides)
# ASSAY_NOTES: Test B postemergence
# Assay type: in vivo
# TEST_CONDITIONS: 62 g ai/ha, scale 0 to 100 (0 no effect, 100 complete control)
Label True when Blackgrass plant response rating >= 60; otherwise False.

# COMPOUND, ASSAYED_SYSTEM, CATEGORY
records = [
    ("COC(=O)c1nc(-c2ccc(Br)cc2)nc(N)c1Br [Compound 129]", "blackgrass (Alopecurus myosuroides)", "True"),
    ("COC(=O)c1nc(-c2ccc(Cl)cc2)nc(N)c1Br [Compound 83]", "blackgrass (Alopecurus myosuroides)", "False"),
    ("Nc1nc(-c2ccc(Br)cc2)nc(C(=O)O)c1Br [Compound 136]", "blackgrass (Alopecurus myosuroides)", "True"),
    ("Nc1nc(-c2ccc(Cl)cc2)nc(C(=O)O)c1Br [Compound 88]", "blackgrass (Alopecurus myosuroides)", "False"),
    ("CCOC(=O)C(Cl)c1nc(C2CC2)nc(N)c1Br (stereo not drawn) [Compound 31]", "blackgrass (Alopecurus myosuroides)", "False"),
]
